target: hNav1.8 (Homo sapiens); construct: host or cells: HEK cells, stably transfected; experiment: hNav1.8 whole-cell patch-clamp electrophysiology (conventional or PatchXpress 7000) in stably transfected HEK cells; assay type: cell-based; conditions: estimated IC50 calculated from single point % inhibition; HEK cells expressing hNav1.8; 8 sec prepulse to V1/2, 20 msec step to 0 mV; average of replicates; read-out: Nav1.8 EIC50
pIC50: −log10 of the molar value.
endpoint_name: pIC50

Below: 2 compounds and their reported pIC50.
CC(C)(C)c1ccc2[nH]c([C@H]3C[C@@H](O)CN3)nc2c1: 7.24
CC(C)[C@@H](O)[C@H](N)c1nc2cc(C(C)(C)C)ccc2[nH]1: 6.64

I: CC(C)(C)c1ccc2nc([C@@H](N)CO)cn2c1
II: C[C@H](N)c1nc2cc(-c3ccc(C#N)cc3)ccc2[nH]1
III: CO[C@H](C)[C@H](N)c1nc2cc(-c3ccccc3C#N)ccc2[nH]1
Incoming: Order the records, beginning with the lowest pIC50 and ending with the highest. Write out the labels following the order that was asked for.
Outgoing: II, III, I
(II: 6.00, III: 6.32, I: 6.68)

----------
molecular target: hNav1.8 (Homo sapiens); construct: host or cells: HEK cells, stably transfected; experiment: hNav1.8 whole-cell patch-clamp electrophysiology (conventional or PatchXpress 7000) in stably transfected HEK cells; format: cell-based; conditions: estimated IC50 calculated from single point % inhibition; HEK cells expressing hNav1.8; 8 sec prepulse to V1/2, 20 msec step to 0 mV; average of replicates; read-out: Nav1.8 EIC50
pIC50: −log10 of the molar value.
endpoint_name: pIC50

CC(C)C[C@@H](N)c1nc2cc(-c3ccc(C#N)cc3)ccc2[nH]1: 6.11

a: CC(C)c1ccc2[nH]c([C@@H](N)[C@H](O)C(C)C)nc2c1
b: CC[C@@H](O)[C@H](N)c1nc2cc(C(C)C)ccc2[nH]1
Incoming: Kindly identify which of a and b has the larger recorded pIC50 value. Mark your selection by writing its label.
Outgoing: b
(b: 6.01, a: 5.65)

A: CC(C)(N)c1nc2cc(-c3ccc(Cl)c(C#N)c3)ccc2[nH]1
B: CO[C@H](C)[C@H](N)c1nc2cc(-c3ccc(C#N)cc3)ccc2[nH]1
Incoming: Looking only at measured pIC50, which entry is lower, A or B ? Mark your selection by writing its label.
Outgoing: A

----------
molecular target: hNav1.8 (Homo sapiens, UniProt Q9Y5Y9); construct: host or cells: HEK cells, stably transfected; experiment: hNav1.8 whole-cell patch-clamp electrophysiology (conventional or PatchXpress 7000) in stably transfected HEK cells; format: cell-based; conditions: estimated IC50 calculated from single point % inhibition; HEK cells expressing hNav1.8; 8 sec prepulse to V1/2, 20 msec step to 0 mV; average of replicates; read-out: Nav1.8 EIC50
Sequence (Q9Y5Y9 whole entry): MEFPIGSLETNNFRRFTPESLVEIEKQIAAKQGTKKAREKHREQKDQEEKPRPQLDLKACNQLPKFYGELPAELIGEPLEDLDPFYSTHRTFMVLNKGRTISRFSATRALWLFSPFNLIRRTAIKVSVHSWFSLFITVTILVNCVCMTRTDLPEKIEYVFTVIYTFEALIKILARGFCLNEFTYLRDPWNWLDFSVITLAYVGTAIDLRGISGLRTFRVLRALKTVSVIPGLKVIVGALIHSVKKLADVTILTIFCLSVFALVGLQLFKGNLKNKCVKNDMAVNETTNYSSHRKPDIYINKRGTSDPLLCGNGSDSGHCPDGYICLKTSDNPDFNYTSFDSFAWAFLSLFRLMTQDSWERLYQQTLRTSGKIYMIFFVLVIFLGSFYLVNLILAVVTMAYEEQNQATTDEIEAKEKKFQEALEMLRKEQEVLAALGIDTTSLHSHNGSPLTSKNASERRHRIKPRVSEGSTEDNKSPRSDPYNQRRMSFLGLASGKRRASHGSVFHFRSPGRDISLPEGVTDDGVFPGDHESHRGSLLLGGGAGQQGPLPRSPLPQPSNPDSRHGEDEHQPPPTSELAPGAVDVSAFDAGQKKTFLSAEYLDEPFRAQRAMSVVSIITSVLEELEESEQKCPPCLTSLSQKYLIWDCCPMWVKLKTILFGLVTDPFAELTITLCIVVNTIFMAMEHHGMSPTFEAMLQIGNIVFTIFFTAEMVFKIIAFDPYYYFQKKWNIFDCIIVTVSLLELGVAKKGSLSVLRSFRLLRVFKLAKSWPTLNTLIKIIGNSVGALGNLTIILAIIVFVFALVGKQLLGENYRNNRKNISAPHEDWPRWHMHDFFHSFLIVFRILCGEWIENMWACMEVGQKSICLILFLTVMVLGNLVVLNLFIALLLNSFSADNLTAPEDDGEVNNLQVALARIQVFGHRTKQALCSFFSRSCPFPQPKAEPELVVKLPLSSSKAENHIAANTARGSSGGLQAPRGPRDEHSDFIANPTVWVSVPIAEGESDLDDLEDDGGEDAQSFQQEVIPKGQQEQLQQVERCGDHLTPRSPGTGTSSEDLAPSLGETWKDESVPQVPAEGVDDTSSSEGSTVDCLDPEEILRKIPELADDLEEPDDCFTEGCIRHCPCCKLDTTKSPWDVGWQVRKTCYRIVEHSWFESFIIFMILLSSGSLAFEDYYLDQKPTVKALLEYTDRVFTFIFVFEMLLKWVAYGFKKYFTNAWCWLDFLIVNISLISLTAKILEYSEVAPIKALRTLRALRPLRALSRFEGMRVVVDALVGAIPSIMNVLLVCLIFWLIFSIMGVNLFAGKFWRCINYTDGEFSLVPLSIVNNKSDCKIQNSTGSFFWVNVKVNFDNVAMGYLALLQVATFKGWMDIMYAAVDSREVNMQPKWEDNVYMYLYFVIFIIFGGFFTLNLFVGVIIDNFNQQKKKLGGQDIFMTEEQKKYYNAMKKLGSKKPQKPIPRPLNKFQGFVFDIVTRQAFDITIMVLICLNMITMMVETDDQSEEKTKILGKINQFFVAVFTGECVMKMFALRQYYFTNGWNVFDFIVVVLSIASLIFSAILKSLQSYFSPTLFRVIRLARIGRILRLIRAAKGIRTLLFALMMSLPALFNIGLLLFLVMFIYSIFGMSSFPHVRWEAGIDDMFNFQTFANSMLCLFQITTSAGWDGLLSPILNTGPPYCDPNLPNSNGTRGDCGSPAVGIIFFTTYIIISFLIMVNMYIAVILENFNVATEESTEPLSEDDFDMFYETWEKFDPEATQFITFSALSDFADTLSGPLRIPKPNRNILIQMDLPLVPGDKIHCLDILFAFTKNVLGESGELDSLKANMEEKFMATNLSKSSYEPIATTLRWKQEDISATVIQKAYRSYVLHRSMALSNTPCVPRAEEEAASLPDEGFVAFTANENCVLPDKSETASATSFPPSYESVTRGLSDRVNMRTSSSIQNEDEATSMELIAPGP
endpoint_name: IC50 (nM)

Below: 3 molecules and their reported IC50.
CC(C)(C)c1ccc2[nH]c([C@H]3CCN3)nc2c1: 1340
C[C@@H](C(N)=O)[C@H](N)c1nc2cc(-c3ccc(C#N)c(F)c3)ccc2[nH]1: 56.1
COC[C@H](N)c1nc2cc(C(C)(C)C)ccc2[nH]1: 243

a: CCCC[C@H](N)c1nc2cc(-c3ccc(C#N)cc3)ccc2[nH]1
b: N#Cc1ccc(-c2ccc3[nH]c([C@H](N)CC(N)=O)nc3c2)cc1
Incoming: Looking only at measured IC50, which entry is lower, a or b ? Mark your selection by writing its label.
Outgoing: a

Values from patent US8927587B2
